- Test system: Plasmodium falciparum
- assay procedure: NOVARTIS: Inhibition of Plasmodium falciparum W2 (drug-resistant) proliferation in erythrocyte-based infection assay
- Assay type: functional, organism-based
- measurement parameters: read-out: EC50
reported endpoint: EC50 (nM)
Give bare numbers, in nM.

Consider the following illustrative entries.
CC1=CC(=O)OC[C@]23CCC(C)=C[C@H]2O[C@@H]2C[C@@H](OC(=O)C=CC=CC(=O)OCC1)[C@@]3(C)[C@]21CO1 :: 9.18
CCCC[n+]1c(C=C2C=Cc3ccccc3N2CC)sc2ccccc21 :: 228
C[n+]1ccc(/C=C/c2c[nH]c3ccccc23)cc1 :: 95.9
CCN1/C(=C\C=C\c2n(CC)c3ccc(C#N)cc3[n+]2CC)Oc2ccc(-c3ccccc3)cc21 :: 6060
CC[n+]1c(C=CN(C)C)sc2ccccc21 :: 462
CCCCN1C(=Cc2cccc[n+]2C)Sc2cc(NC(C)=O)ccc21 :: 3670
CCN1/C(=C/c2cccc[n+]2C)C=Cc2ccccc21 :: 572

Let's switch to this compound now.
Which EC50 is listed for "CC[n+]1c(/C=C/N2CCCc3ccccc32)ccc2ccccc21" ?
246

* * *

- assay procedure: NOVARTIS: Cytotoxicity against human hepatocellular carcinoma cell line (Huh7)
- Assay type: toxicity, cell-based, Huh-7
- measurement parameters: Huh7 cells (hepatocellular carcinoma cell line)
reported endpoint: CC50

Example entries begin here.
COc1c2occc2c(OC)c2c(=O)cc(C(Cl)(Cl)Cl)oc12 :: > 100 µM
Oc1ccccc1-c1nc2sc(-c3ccccc3O)nc2s1 :: > 10 µM
O=C(C1Cc2ccccc2CN1S(=O)(=O)c1ccc(F)cc1)N1CCOCC1 (stereo unspecified) :: > 10 µM

# per-item lookup of CC50; items listed below
1. C/C=C(\Cl)C1=CC(=O)[C@]23C[C@H]2[C@@]2(C)CO[C@@]1(O)[C@@]3(O)O2
2. CCC1CN2CCC1CC2[C@@H](O)c1ccnc2ccc(OC)cc12 (stereo partly specified) [DIHYDROQUINIDINE]
3. CCCCN(C)CCCNC(=O)c1ccc(Cl)c(NC(=O)Nc2ccc(Cl)c(Cl)c2)c1
4. O=C(NC(=CC=Cc1ccccc1)C(=O)N1CCCCC1)c1ccc([N+](=O)[O-])cc1
5. COc1ccc(OCC(=O)Nc2c(C)n(C)n(-c3ccccc3)c2=O)cc1
6. CC1CCCN(Cc2nnnn2-c2ccc(Cl)cc2)C1 (stereo unspecified)
7. COc1cccc(NCC(O)Cn2c3ccc(Cl)cc3c3cc(Cl)ccc32)c1 (stereo unspecified)

["> 10 µM", "> 96 µM", "20.3 µM", "> 100 µM", "> 10 µM", "> 10 µM", "51.3 µM"]

* * *

Hi there, I'd appreciate the recorded pEC50 for every entry that follows.
- System: Plasmodium falciparum
- assay procedure: NOVARTIS: Inhibition of Plasmodium falciparum W2 (drug-resistant) proliferation in erythrocyte-based infection assay
- Format: functional, organism-based
- measurement parameters: read-out: EC50
Numbers only, as −log10 of the molar value.

Would you please look over these solved cases?
CC[n+]1c(C=CN(C)C)sc2ccccc21 :: 5.87
C=C(c1ccccc1)[n+]1ccc(/C=C/c2ccccc2O)cc1 :: 6.54

Would you be so kind as to report pEC50 for each listed record?
1. Cc1ccc(/C=C2/SC(=Nc3ccccc3)NC2=O)c(C)c1
2. C[n+]1ccccc1C=Cc1cc(Br)ccc1O
3. C=CCN1C=CC(=Cc2sc3ccccc3[n+]2C)c2ccccc21
4. CC(C)c1ccc(/C=C2/SC(=Nc3ccccc3)NC2=O)cc1
5. Cc1ccc(C=Cc2ccc(N(C)C)cc2)[n+](C)c1
6. CCCC[n+]1c(C=C2C=Cc3ccccc3N2CC)sc2ccccc21
7. C=CCN1C(=O)/C(=C2/Sc3ccc(OC)cc3N2C)SC1=Nc1ccccc1-c1ccccc1
8. CC[n+]1c(C=C2Sc3ccccc3N2CCO)sc2ccccc21

1. 6.45
2. 6.51
3. 6.94
4. 6.00
5. 6.04
6. 6.16
7. 6.08
8. 6.29

I have 7 molecules here; please give me pEC50 for each one.
1. CCOC(=O)c1ccc(-n2c(C)cc(/C=C3\SC(=Nc4ccc(Cl)cc4)NC3=O)c2C)cc1
2. CC1=C(C=CC(C)C=NNC(=O)c2ccncc2)C(C)(C)CCC1 (stereo not drawn)
3. CCN1/C(=C/c2sc3ccccc3[n+]2CC)Sc2ccccc21
4. CN(C=Cc1sc2ccc3ccccc3c2[n+]1C)c1ccccc1
5. CCN1/C(=C/c2ccc3cc(OC)ccc3[n+]2CC)Sc2ccc(NC(C)=O)cc21
6. CCOC(=O)c1cnc2ccc(OC)cc2c1O
7. C=CC[n+]1c(C=C2C=CC=CN2C)sc2ccccc21

1. 5.85
2. 5.95
3. 6.61
4. 6.82
5. 6.93
6. 6.14
7. 6.39

I need pEC50 for every entry listed below, if you could help.
1. CC[n+]1c(/C=C2\C=Cc3cc(C)ccc3N2C)ccc2cc(C)ccc21
2. C[n+]1ccc(C=Cc2ccc(O)cc2)cc1
3. CCN1/C(=C/c2ccc3cc(C)ccc3[n+]2C)Sc2ccc3ccsc3c21

[6.02, 6.76, 6.07]

* * *

- System: Plasmodium falciparum
- assay procedure: NOVARTIS: Inhibition of Plasmodium falciparum W2 (drug-resistant) proliferation in erythrocyte-based infection assay
- Type: functional, organism-based
- measurement parameters: Plasmodium falciparum, W2; read-out: EC50
reported endpoint: log10 of EC50 (log10 of the value in nM)
Please be aware that the numbers have been log10-transformed from EC50 in nM.

Examples with answers:
C=CCc1c(C)nc2ccccc2c1O :: 2.93
CCOC(=O)c1c(C)n(Cc2ccccc2)c2c1cc(O)c1c2c(-c2ccccc2)nn1-c1ccccc1 :: 2.54
COc1ccc(CN(CC2CCN(C(=O)c3ccccc3Cl)CC2)C(=O)c2ccc(Cl)cc2Cl)cc1 :: 3.52
COC(=O)c1cccc(NC(=O)C(=Cc2cccc([N+](=O)[O-])c2)NC(=O)c2ccccc2OC)c1 :: 3.46
CN(CCCNc1ccnc2cc(Cl)ccc12)C(=O)C1CCC1 :: 1.97

Quick request: log10 of EC50 for each listed item, please.
1. Cc1ccc(-c2nnc(Nc3ccc(F)cc3)c3ccccc23)cc1S(=O)(=O)NCC1CCCO1 (stereo not drawn)
2. Cc1ccc(-n2cc(C(=O)N(C)Cc3ccccc3)c3ccccc3c2=O)cc1C

1. 3.49
2. 3.47

* * *

- System: Plasmodium falciparum
- assay procedure: NOVARTIS: Inhibition of Plasmodium falciparum 3D7 (drug-susceptible) proliferation in erythrocyte-based infection assay
- Assay type: functional, organism-based
- measurement parameters: Plasmodium falciparum, 3D7
reported endpoint: pEC50
One number for each entry, as −log10 of the molar value.

Cc1c(C)c2c(c(C)c1O)CC[C@](C)(CN1CCN(c3cc(N4CCCC4)nc(N4CCCC4)n3)CC1)O2 :: 6.76
O=C(Cc1ccsc1)NC1CCN(CC(O)CN(Cc2ccccc2)S(=O)(=O)c2ccccc2)C1 (stereo unspecified) :: 6.39
Cc1noc(C)c1S(=O)(=O)N(Cc1ccccc1)CC(O)CN1CCC(NC(=O)c2ccccc2Cl)C1 (stereo unspecified) :: 6.59
O=[N+]([O-])c1cccc2c1nnn2C12CC3CC(CC(O)(C3)C1)C2 :: 6.27
O=C1CN(C(=O)CCC2CCCCC2)C(c2ccc(F)cc2)c2cc(F)ccc2N1 (stereo unspecified) :: 6.25

Each compound below has a recorded value; state its pEC50.
1. COCC(=O)Oc1ccccc1-c1nc2cc(C)ccn2c1NC(C)(C)CC(C)(C)C
2. Cc1ccc(N=C2NC(=O)/C(=C/c3cc(C)n(-c4cccc([N+](=O)[O-])c4)c3C)S2)cc1
3. CC1=C(C(=O)OC2CCCC2)C(c2ccccc2F)C2=C(CC(c3ccccc3)CC2=O)N1 (stereo unspecified)
4. Cc1nonc1C(=O)NN=Cc1ccc([N+](=O)[O-])o1
5. C=C1C=CN(Cc2ccccc2)c2ccc(OC)cc21

[6.10, 6.45, 6.27, 5.76, 6.35]

* * *

- Tested on: Plasmodium falciparum
- assay procedure: NOVARTIS: Inhibition of Plasmodium falciparum 3D7 (drug-susceptible) proliferation in erythrocyte-based infection assay
- Assay type: functional, organism-based
- measurement parameters: Plasmodium falciparum, 3D7
reported endpoint: EC50 (nM)
Numbers only, in nM.

Recorded EC50, per entry:
Cc1cc(C)n(-c2ccc(NC(=O)C3CCN(Cc4ccc5nonc5c4)CC3)cc2)n1 :: 430
Cc1ccc(C[n+]2cc(-c3ccc(C)cc3)n3c2CCC3)cc1 :: 538
CCN(CC)c1ccc(NC(=O)c2cccs2)cc1 :: 414

Turning now to a further record.
Bench note: what EC50 did "c1ccc(-c2ccnc3c2ccc2c(-c4ccccc4)ccnc23)cc1" show?
329

* * *

- assay procedure: NOVARTIS: Cytotoxicity against human hepatocellular carcinoma cell line (Huh7)
- Type: toxicity, cell-based, Huh-7
- measurement parameters: Huh7 cells (hepatocellular carcinoma cell line)
reported endpoint: CC50

Cn1nc(C(=O)NCc2ccc(F)cc2)c2c1CCC(N1CCC(CO)CC1)C2 (stereo unspecified) :: > 10 µM
COc1ccc(-c2cc(C(F)(F)F)n3nc(C(=O)NC4CCCCC4)c(Cl)c3n2)cc1OC :: > 4.02 µM
OC(CNCC1CCCO1)Cn1c2ccc(Br)cc2c2cc(Br)ccc21 (stereo unspecified) :: 20.3 µM
CC1=NN(c2ccc(C(=O)O)cc2)C(=O)/C1=C\c1ccc([N+](=O)[O-])o1 :: > 10 µM
COCCNc1cc(-c2ccccn2)nc(-c2ccccn2)n1 :: > 10 µM

For every record below, what is its CC50?
1. COc1ccc(Nc2nc(NN=Cc3cccc(I)c3)nc(Nc3ccc([N+](=O)[O-])cc3)n2)cc1
2. COc1ccc(-n2nc(C(=O)NCC(=O)Nc3ccc(F)cc3)c3ccccc3c2=O)cc1Cl
3. O=C(COc1cccc(Br)c1)NN=Cc1ccccc1F
4. CCOC(=O)c1c(C)[nH]c2c1cc(O)c1ccccc12
5. O=C(Nc1ccc([N+](=O)[O-])cc1Cl)c1cc(Br)ccc1O

1. > 11.7 µM
2. > 10 µM
3. > 10 µM
4. > 10 µM
5. 55.6 µM

Would you mind listing CC50 for each of the following compounds?
1. CC[n+]1c(/C=C/N(C)c2ccccc2)sc(-c2ccccc2)c1-c1ccccc1
2. CCCCCC(=O)NCCCCCCNc1ccnc2cc(Cl)ccc12

> 10 µM
> 13.9 µM

# batch size: 6; output CC50 per entry
1. CC(=O)Nc1ccc2c(c1)C(=O)N(C(C(=O)NC1CCCCC1)c1ccc([N+](=O)[O-])cc1)[C@@H](c1ccccc1)C(=O)N2 (stereo partly specified)
2. N=C(N)NN=Cc1cccc(OCc2ccc(Cl)c(Cl)c2)c1
3. CCC(/C=C1\Sc2ccc(OC)cc2N1CCCS(=O)(=O)O)=C\c1sc2ccc(OC)cc2[n+]1CCCS(=O)(=O)O
4. CN(C)CCCNc1ccnc2cc(Cl)ccc12
5. COc1cccc(-c2ccc(O)c(CN3CCC(Cc4ccccc4)CC3)c2)n1
6. CCOc1ccc(S(=O)(=O)N=C2C=C(Nc3ccc(O)cc3)C(=O)c3ccccc32)cc1

1: 7.68 µM; 2: > 10 µM; 3: 10.1 µM; 4: > 10 µM; 5: 38.5 µM; 6: 7.05 µM
